- TEST_NAME: Compound stability in rat liver microsomes
- Format: in vitro ADME
- TEST_CONTEXT: pH 7.4; rat liver microsomes; in vivo CLint extrapolated
Response field class: enum, chosen by comparing CLint scaled at 5 μM against bucket A: < 100 mL/min/kg; bucket B: ≥ 100 mL/min/kg and < 300 mL/min/kg; bucket C: ≥ 300 mL/min/kg

In [3]: df
Out[3]:
                                   compound  category_label
0  CC[C@H](Nc1ncnc(N)c1-c1nc(C)no1)c1nc2cccc(F)c2c(=O)n1C1CC1 [Ex. 23]        bucket A
1  CC[C@H](Nc1ncnc(N)c1-c1nnc(C)o1)c1nc2cccc(Cl)c2c(=O)n1-c1ccccc1 [Ex. 1]        bucket B
2  Cc1noc(-c2c(N)ncnc2N[C@@H](C)c2nc3cccc(Cl)c3c(=O)n2C2CC2)n1 [Ex. 41]        bucket B
3  CC[C@H](Nc1ncnc(N)c1-c1nc(C)no1)c1nc2cccc(C)c2c(=O)n1-c1ccccc1C [Ex. 27]        bucket B
4  CC[C@H](Nc1ncnc(N)c1-c1nc(C(N)=O)n(C)n1)c1nc2cccc(Cl)c2c(=O)n1C1CC1 [Ex. 58]        bucket A
5  CC[C@H](Nc1ncnc(N)c1-c1nc(C)no1)c1nc2cccc(Cl)c2c(=O)n1[C@@H]1C[C@@H]1F [Ex. 62]        bucket A
6  CC[C@H](Nc1ncnc(N)c1-c1nc(C)no1)c1nc2cccc(C)c2c(=O)n1-c1ccccc1 [Ex. 37]        bucket C
7  CC[C@H](Nc1ncnc(N)c1-c1ncn(C)n1)c1nc2cccc(Cl)c2c(=O)n1-c1ccccc1 [Ex. 32]        bucket B

query: Form field 'band' for CC[C@H](Nc1ncnc(N)c1-c1noc(C)n1)c1nc2cccc(Cl)c2c(=O)n1-c1ccccc1 [Ex. 13]
result: bucket C

query: Which CLint scaled at 5 μM category applies to CC[C@H](Nc1ncnc(N)c1-c1nnn(C)n1)c1nc2cccc(F)c2c(=O)n1-c1ccccc1 [Ex. 43] here?
result: bucket C

query: Determine which band this compound sits in: CC(C)c1noc(-c2c(N)ncnc2N[C@@H](C)c2nc3cccc(Cl)c3c(=O)n2C2CC2)n1 [Ex. 57]
result: bucket B

query: Where would CC[C@H](Nc1ncnc(N)c1-c1nc(C)no1)c1nc2cccc(Cl)c2c(=O)n1-c1ccccc1 [Ex. 3] land among the classes by reported CLint scaled at 5 μM?
result: bucket A

query: Quick check: band for CC[C@H](Nc1ncnc(N)c1-c1nnc(C)o1)c1nc2cccc(C)c2c(=O)n1-c1ccccc1 [Ex. 38]
result: bucket B

query: Please let me know in which category the item Cc1nc(-c2c(N)ncnc2N[C@@H](C)c2nc3cccc(Cl)c3c(=O)n2C2CC2)no1 [Ex. 33] belongs.
result: bucket B

query: Quick check: band for CC[C@H](Nc1ncnc(N)c1-c1nnc(C)o1)c1nc2cccc(F)c2c(=O)n1-c1ccccc1 [Ex. 40]
result: bucket B

query: Consider CC[C@H](Nc1ncnc(N)c1-c1nc(C)co1)c1nc2cccc(C)c2c(=O)n1-c1ccccc1C [Ex. 29] . To which CLint scaled at 5 μM class does it belong?
result: bucket C

This collection of values is drawn from patent US9670194B2.
